tested on: Bacillus subtilis; test: Inhibition of FtsZ in penicillin-susceptible Bacillus subtilis ATCC 9372 assessed as lowest drug concentration causing inhibition of cell division incubated for 5 hrs by phase-contrast light microscopy
Quick rule for you: MIC under 8 µg/mL gets true, anything else gets false.

Below are worked cases with known answers.
1) COc1cc(OC)c2c(c1)c1ccccc1c[n+]2C.[Cl-] ... true
2) C[n+]1cc2ccccc2c2cc(OC(F)(F)F)ccc21.[Cl-] ... false
3) Cc1cc(C)c2c(c1)c1ccccc1c[n+]2C.[Cl-] ... true
4) C[n+]1cc2ccccc2c2cc(F)ccc21.[Cl-] ... false

I'd appreciate it if you could check whether `C[n+]1cc2ccccc2c2ccccc21.[Cl-]` has MIC smaller than 8 µg/mL.
false

I'd appreciate it if you could check whether `C[n+]1cc2ccccc2c2cc(Cl)ccc21.[Cl-]` has MIC smaller than 8 µg/mL.
false

I'd appreciate it if you could check whether `Cc1cccc2c3ccccc3c[n+](C)c12.[Cl-]` has MIC smaller than 8 µg/mL.
true

I'd appreciate it if you could check whether `Cc1ccc2c(c1)c1ccccc1c[n+]2C.[Cl-]` has MIC smaller than 8 µg/mL.
true

src = ChEMBL document CHEMBL4052686
